Give IC50 for every item shown.
Biological target: CK1δ (Homo sapiens, UniProt P48730)
Sequence (P48730 whole entry): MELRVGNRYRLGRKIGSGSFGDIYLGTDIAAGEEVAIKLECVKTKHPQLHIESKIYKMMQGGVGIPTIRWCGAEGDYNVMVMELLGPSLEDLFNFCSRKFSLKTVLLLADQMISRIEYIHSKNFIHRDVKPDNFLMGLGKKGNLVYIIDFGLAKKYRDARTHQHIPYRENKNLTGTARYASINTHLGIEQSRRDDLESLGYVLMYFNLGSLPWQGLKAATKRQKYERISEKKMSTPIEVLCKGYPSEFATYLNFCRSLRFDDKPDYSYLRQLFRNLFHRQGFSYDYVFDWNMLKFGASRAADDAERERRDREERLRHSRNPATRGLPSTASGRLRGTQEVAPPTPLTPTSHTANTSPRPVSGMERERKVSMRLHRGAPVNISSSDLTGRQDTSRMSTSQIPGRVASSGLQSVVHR
Experiment: CK1δ kinase assay (Caliper LabChip electrophoretic separation of fluoresceinated peptide substrate and product)
Format: biochemical
Details: 200 pM CK1δ, 50 μM ATP, 1.5 μM peptide, 22 hours at room temperature; read-out: CK1δ IC50 range
Method: CK1ε and CK1δ Kinase Assays The kinase assay was performed in V-bottom 384-well plates. […] The reaction was incubated at room temperature for 22 hours and terminated by adding 45 μl of 35 mM EDTA to each sample. The reaction mixture was analyzed on the Caliper LABCHIP®3000 (Caliper, Hopkinton, Mass.) by electrophoretic separation of the unphosphorylated substrate and phosphorylated product. […] Compounds were dissolved at 10 mM in dimethylsulfoxide (DMSO) and evaluated at eleven concentrations. […]

CC(C)(C)NC(=O)N1CCn2nc(-c3ccc4cc[nH]c4c3)c(C(N)=O)c2C1: 0.01 to 10 nM
CC(C)(C)NC(=O)N1CCn2nc(-c3cccc(C#N)c3)c(C(N)=O)c2C1: 10 to 100 nM
CC(C)(C)NC(=O)N1Cc2c(C(N)=O)c(-c3ccc(F)c(Cl)c3)nn2C2(COC2)C1: 0.01 to 10 nM
NC(=O)c1c(-c2ccc(F)c(Cl)c2)nn2c1CN(C(=O)NC1CC(C(F)F)C1)CC2 (single isomer, unassigned) [Compound 252]: 0.01 to 10 nM

For the 5 compounds below, give their IC50 values.
1. CO[C@H]1C[C@H](NC(=O)N2CCn3nc(-c4ccc(Cl)c(Cl)c4)c(C(N)=O)c3C2)C1
2. CC(C)(C)NC(=O)N1Cc2c(C(N)=O)c(-c3cccc(F)c3)nn2C(CF)C1 (single isomer, unassigned) [Compound A107]
3. CO[C@H]1C[C@@H](NC(=O)N2CCn3nc(-c4ccc(F)c(Cl)c4)c(C(N)=O)c3C2)C1
4. NC(=O)c1c(-c2cccc(Cl)c2)nn2c1CN(C(=O)NC1(C(F)F)CCC1)CC2
5. NC(=O)c1c(-c2ccc(F)c(Cl)c2)nn2c1CN(C(=O)NC1CC(F)(F)C1)C[C@@H]2CF

Ans:
["0.01 to 10 nM", "0.01 to 10 nM", "0.01 to 10 nM", "0.01 to 10 nM", "0.01 to 10 nM"]

For the 6 compounds below, give their IC50 values.
1. NC(=O)c1c(-c2ccc(F)c(Cl)c2)nn2c1CN(C(=O)NC13CCC(CF)(CC1)C3)CC2
2. NC(=O)c1c(-c2ccc(Cl)c(Cl)c2)nn2c1CN(C(=O)N[C@@H]1CC[C@H]1COC(F)F)CC2
3. NC(=O)c1c(-c2cccc(F)c2)nn2c1CN(C(=O)Nc1ccc(O)nc1)CC2
4. CC(C)NC(=O)N1CCn2nc(-c3cccc(F)c3)c(C(N)=O)c2C1
5. N#CC1(NC(=O)N2CCn3nc(-c4ccc(Cl)c(Cl)c4)c(C(N)=O)c3C2)CCOC1 (stereo not drawn)
6. CC(C)(NC(=O)N1CCn2nc(-c3ccc(Cl)c(Cl)c3)c(C(N)=O)c2C1)c1ccc(C#N)cc1

Ans:
1. 0.01 to 10 nM
2. 0.01 to 10 nM
3. 10 to 100 nM
4. 10 to 100 nM
5. 0.01 to 10 nM
6. 0.01 to 10 nM

---

biological target: CK1δ (Homo sapiens, UniProt P48730); experiment: CK1δ kinase assay (Caliper LabChip electrophoretic separation of fluoresceinated peptide substrate and product); assay type: biochemical; conditions: 200 pM CK1δ, 50 μM ATP, 1.5 μM peptide, 22 hours at room temperature; read-out: CK1δ IC50 range
pIC50: −log10 of the molar value.
MEASURED METRIC: pIC50

Would you please look over these solved cases?
CC1(NC(=O)N2CCn3nc(-c4ccc(F)c(Cl)c4)c(C(N)=O)c3C2)CC(C(F)F)C1 (single isomer, unassigned) [Compound 259]: 8.00 to 11.00
NC(=O)c1c(-c2cccc(Cl)c2)nn2c1CN(C(=O)NC1CC3(C1)CC3(F)F)CC2 (single isomer, unassigned) [Compound 323]: 8.00 to 11.00
CC1CN(C(=O)NC(C)(C)C)Cc2c(C(N)=O)c(-c3cccc(F)c3)nn21 (single isomer, unassigned) [Compound A109]: 8.00 to 11.00

For the 8 compounds below, give their pIC50 values.
1. CC1Cn2nc(-c3ccc(F)c(Cl)c3)c(C(N)=O)c2CN1C(=O)NC1CC(F)(F)C1 (single isomer, unassigned) [Compound 343]
2. NC(=O)c1c(-c2ccc(Cl)c(Cl)c2)nn2c1CN(C(=O)NCC1CCC(F)(F)CC1)CC2 [Compound 206]
3. NC(=O)c1c(-c2cccc(Cl)c2)nn2c1CN(C(=O)NC1CC(F)(F)C1)CC2CF (single isomer, unassigned) [Compound A113]
4. NC(=O)c1c(-c2ccc(F)c(Cl)c2)nn2c1CN(C(=O)NC(CF)(CF)CF)CC2 [Compound A49]
5. N#CC12CCC(NC(=O)N3CCn4nc(-c5ccc(F)c(Cl)c5)c(C(N)=O)c4C3)(CC1)C2 [Compound A140]
6. CC(C)(C)NC(=O)N1Cc2c(C(N)=O)c(-c3ccc(F)c(Cl)c3)nn2C(C(C)(C)O)C1 (stereo not shown) [Compound A17]
7. NC(=O)c1c(-c2ccc(Cl)c(Cl)c2)nn2c1CN(C(=O)NC1(c3ccc(F)cc3)CC(F)(F)C1)CC2 [Compound 310]
8. CC(C)(C)NC(=O)N1CCn2nc(-c3cccc(CNS(C)(=O)=O)c3)c(C(N)=O)c2C1 [Compound 135]

Ans:
["8.00 to 11.00", "8.00 to 11.00", "8.00 to 11.00", "8.00 to 11.00", "8.00 to 11.00", "7.00 to 8.00", "8.00 to 11.00", "5.70 to 7.00"]

---

target: UniProtKB P49674; assay: CK1ε kinase assay (Caliper LabChip electrophoretic separation of fluoresceinated peptide substrate and product); assay type: biochemical; conditions: 200 pM CK1ε, 50 μM ATP, 1.5 μM peptide, 22 hours at room temperature; read-out: CK1ε IC50 range
pIC50: −log10 of the molar value.
Give pIC50 for every item shown.

Would you please look over these solved cases?
CC(C)(C)NC(=O)N1CCn2nc(-c3cccc(C(=O)O)c3)c(C(N)=O)c2C1: 5.70 to 7.00
CC(C)(C)NC(=O)N1CCn2nc(-c3ccccc3)c(C(N)=O)c2C1: 7.00 to 8.00
CC(C)(C)NC(=O)N1CCn2nc(-c3cccc(CNS(C)(=O)=O)c3)c(C(N)=O)c2C1: 5.70 to 7.00
CC1(NC(=O)N2CCn3nc(-c4cc(F)cc(Cl)c4)c(C(N)=O)c3C2)CC(F)(F)C1: 8.00 to 11.00
C[C@H]1CN(C(=O)NC2CC(F)(F)C2)Cc2c(C(N)=O)c(-c3ccc(F)c(Cl)c3)nn21: 8.00 to 11.00
CC(C)(O)[C@H](F)CNC(=O)N1CCn2nc(-c3ccc(Cl)c(Cl)c3)c(C(N)=O)c2C1: 8.00 to 11.00
CC(C)(C)NC(=O)N1Cc2c(C(N)=O)c(-c3ccc(F)c(Cl)c3)nn2C(C(C)(C)O)C1 (centres unmarked) [Compound A17]: 7.00 to 8.00

Now for another entry.
Q: Give the reported pIC50 for this molecule. "CC(C)(CO)NC(=O)N1CCn2nc(-c3ccc(F)c(Cl)c3)c(C(N)=O)c2C1"
Ans: 8.00 to 11.00

---

biological target: CK1ε (Homo sapiens); experiment: CK1ε kinase assay (Caliper LabChip electrophoretic separation of fluoresceinated peptide substrate and product); type: biochemical; conditions: 200 pM CK1ε, 50 μM ATP, 1.5 μM peptide, 22 hours at room temperature; read-out: CK1ε
Sequence (P49674 whole entry): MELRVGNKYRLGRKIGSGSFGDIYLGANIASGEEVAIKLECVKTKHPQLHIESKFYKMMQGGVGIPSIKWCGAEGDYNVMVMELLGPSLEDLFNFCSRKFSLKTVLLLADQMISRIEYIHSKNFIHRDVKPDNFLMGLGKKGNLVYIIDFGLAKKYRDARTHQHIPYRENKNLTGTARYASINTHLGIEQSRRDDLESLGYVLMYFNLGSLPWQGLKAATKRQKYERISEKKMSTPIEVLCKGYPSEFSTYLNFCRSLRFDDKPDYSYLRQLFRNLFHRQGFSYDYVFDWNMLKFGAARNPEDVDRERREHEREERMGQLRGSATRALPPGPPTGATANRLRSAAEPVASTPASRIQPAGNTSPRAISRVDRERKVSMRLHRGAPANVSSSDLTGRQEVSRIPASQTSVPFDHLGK
Give IC50 for every item shown.
One number for each entry, in nM.

CC(C)(C)NC(=O)N1CCn2nc(-c3cccc(C(F)(F)F)c3)c(C(N)=O)c2C1: 156
CC(C)(C)NC(=O)N1CCn2nc(-c3cccc(Cl)c3)c(C(N)=O)c2C1: 2.4
CC(C)(C)NC(=O)N1CCn2nc(-c3ccc4cc[nH]c4c3)c(C(N)=O)c2C1: 33.3

Q: Give the reported IC50 for this molecule. "NC(=O)c1c(-c2cccc(F)c2)nn2c1CN(C(=O)NC1CCCCC1)CC2"
Ans: 7.2

---

Give IC50 for every item shown.
target: UniProt:P49674; experiment: CK1ε kinase assay (Caliper LabChip electrophoretic separation of fluoresceinated peptide substrate and product); format: biochemical; details: 200 pM CK1ε, 50 μM ATP, 1.5 μM peptide, 22 hours at room temperature; read-out: CK1ε IC50 range

CC1CN(C(=O)NC(C)(C)C)Cc2c(C(N)=O)c(-c3cccc(F)c3)nn21 (single isomer, unassigned) [Compound A108]: 10 to 100 nM
CC(C)C1CN(C(=O)NC(C)(C)C)Cc2c(C(N)=O)c(-c3ccc(F)c(Cl)c3)nn21 (single isomer, unassigned) [Compound A119]: 10 to 100 nM

For the 5 compounds below, give their IC50 values.
1. NC(=O)c1c(-c2ccc(F)c(Cl)c2)nn2c1CN(C(=O)NC1CCCC1)CC2C(F)F (stereo not shown) [Compound A11]
2. NC(=O)c1c(-c2ccc(F)c(Cl)c2)nn2c1CN(C(=O)NC1(C(F)F)CC(F)(F)C1)CC2
3. NC(=O)c1c(-c2cccc(Cl)c2)nn2c1CN(C(=O)NC13CCC(CF)(CC1)CC3)CC2
4. CC(C)(C)NC(=O)N1Cc2c(C(N)=O)c(-c3ccc(F)c(Cl)c3)nn2[C@H]2COC[C@H]21
5. CC(C)(C)NC(=O)N1CCn2nc(-c3ccncc3)c(C(N)=O)c2C1

Ans:
1: 0.01 to 10 nM; 2: 0.01 to 10 nM; 3: 0.01 to 10 nM; 4: 10 to 100 nM; 5: 100 to 2000 nM

The reported measurements were obtained from patent US9273058B2.
